Assay: self-splicing fitness, log relative to wild type (ln ratio); higher = more splicing; Tetrahymena group I intron in knt gene, E. coli kanamycin selection, DiMSum; sequences stand for … in CUCUCU…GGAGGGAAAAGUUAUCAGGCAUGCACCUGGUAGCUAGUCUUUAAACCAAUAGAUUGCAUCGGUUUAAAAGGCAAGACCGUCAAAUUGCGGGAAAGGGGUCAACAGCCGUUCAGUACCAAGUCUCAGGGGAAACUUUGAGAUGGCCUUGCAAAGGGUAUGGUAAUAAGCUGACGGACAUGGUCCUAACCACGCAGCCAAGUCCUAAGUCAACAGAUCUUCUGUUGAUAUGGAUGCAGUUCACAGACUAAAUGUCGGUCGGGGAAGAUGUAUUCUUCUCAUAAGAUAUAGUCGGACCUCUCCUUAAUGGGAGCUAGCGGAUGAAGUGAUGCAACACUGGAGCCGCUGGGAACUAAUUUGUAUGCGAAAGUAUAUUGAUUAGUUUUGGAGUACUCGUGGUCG;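 also: selection with 25 µg/mL kanamycin versus none on LB agar overnight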
Conditions: 37 °C
READOUT NAME: self-splicing fitness (ln)

BIOSEQUENCE	self-splicing fitness (ln)
UCCAAGCAAUAUUACGAAGU	-1.57
CCUGAGCAAUAUUACGCACG	-2.09
GUGAAGCAAUAUUACGUUCG	-0.797
GUCAAGCAAUAUUACGCAAG	-2.48

The sequence listed as `AGAGAGCAAUAUUACGGCAG` has a reported self-splicing fitness (ln) of -1.42

Per the records, this sequence ( `AAGGAGCAAUAUUACGCAGU` ) has self-splicing fitness (ln) equal to -1.38

So for `CGGCAGCAAUAUUACGUUCC` , the logged self-splicing fitness (ln) turned out to be -1.77

The recorded self-splicing fitness (ln) for `GACUAGCAAUAUUACGUCGU` is -1.47

// self-splicing fitness (ln) value for `GUUCAGCAAUAUUACGAUCA` : -0.536

---

Assay: self-splicing fitness, log relative to wild type (ln ratio); higher = more splicing; Tetrahymena group I intron in knt gene, E. coli kanamycin selection, DiMSum; sequences stand for … in CUCUCU…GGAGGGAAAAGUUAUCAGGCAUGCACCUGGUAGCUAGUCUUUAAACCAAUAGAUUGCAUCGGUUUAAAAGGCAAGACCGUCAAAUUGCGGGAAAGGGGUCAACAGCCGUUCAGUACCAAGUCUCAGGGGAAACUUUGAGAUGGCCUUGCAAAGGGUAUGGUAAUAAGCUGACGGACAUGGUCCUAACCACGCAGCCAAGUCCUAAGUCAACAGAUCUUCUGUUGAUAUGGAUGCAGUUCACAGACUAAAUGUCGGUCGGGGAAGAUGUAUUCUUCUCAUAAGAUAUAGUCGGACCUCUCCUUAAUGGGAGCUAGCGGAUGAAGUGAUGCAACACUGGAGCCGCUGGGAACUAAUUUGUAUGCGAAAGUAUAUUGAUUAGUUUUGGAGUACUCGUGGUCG
Conditions: 37 °C
READOUT NAME: self-splicing fitness (ln)

Data point: `UAGAAGCAAUAUUACGAUGA` ; self-splicing fitness (ln) = -0.446

The sequence identified as `AGUCAGCAAUAUUACGUGCU` registered its self-splicing fitness (ln) at -1.43

---

Experiment: self-splicing fitness, log relative to wild type (ln ratio); higher = more splicing; Tetrahymena group I intron in knt gene, E. coli kanamycin selection, DiMSum; sequences stand for … in CUCUCU…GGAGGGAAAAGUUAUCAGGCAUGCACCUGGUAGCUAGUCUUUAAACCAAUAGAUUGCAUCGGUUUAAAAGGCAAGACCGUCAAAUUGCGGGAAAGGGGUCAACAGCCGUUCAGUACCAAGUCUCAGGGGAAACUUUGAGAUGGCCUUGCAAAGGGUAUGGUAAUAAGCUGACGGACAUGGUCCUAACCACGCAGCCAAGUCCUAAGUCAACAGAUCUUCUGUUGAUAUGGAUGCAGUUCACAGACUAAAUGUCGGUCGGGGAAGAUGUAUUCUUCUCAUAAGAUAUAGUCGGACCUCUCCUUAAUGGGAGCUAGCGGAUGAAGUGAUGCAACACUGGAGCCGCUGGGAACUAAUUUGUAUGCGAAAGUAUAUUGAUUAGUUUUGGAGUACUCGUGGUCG
Settings: 37 °C
Some sequences, each annotated with its measured self-splicing fitness (ln).
Give the value as a plain number.

BIOSEQUENCE	self-splicing fitness (ln)
AUAUAGCAAUAUUACGCCCG	-1.56
ACAUAGCAAUAUUACGCGGG	-1.64
GCAUAGCAAUAUUACGUCCG	-0.899
GUAAAGCAAUAUUACGUGAA	-1.39

Quick note, self-splicing fitness (ln) for `ACGUAGCAAUAUUACGUUCU` landed at -0.807

Reported self-splicing fitness (ln) of `AGCAAGCAAUAUUACGAGCU` : -2.15

Reported self-splicing fitness (ln) ( `CAUCAGCAAUAUUACGGCUA` ) = -1.44
